System: SF-295
Experiment: NCI tumour cell line growth inhibition, 48 h
Active and inactive are the calls of the source. Cut-off read from the data, not from the text of the source: active = GI50 up to about 1.1 µM and inactive = higher.
Give GI50 for every item shown.

Q: Look up and report measured GI50 for this entry: c1ccc(-c2cc(C3CO3)c3ccccc3n2)cc1 (stereo not drawn)
Result: 35.2 µM (inactive)

Q: For N#Cc1c(N2CCCC2)nsc1Nc1ccc(F)cc1 , write its GI50.
Result: > 100 µM (inactive)

Q: Note down GI50 recorded for Nc1nc(=O)c2c([nH]1)NCC(CCNc1ccc(C(=O)O)cc1)N2 (stereo not drawn)
Result: > 100 µM (inactive)

Q: Output GI50 of COc1nc2ccc(CNc3ccc(C(=O)NC(CCC(=O)O)C(=O)O)cc3)cc2nc1OC (stereo not drawn)
Result: > 100 µM (inactive)

Q: Provide only the value of recorded GI50 for COCOCc1cc(OCc2ccccc2)c(OC)cc1Br
Result: > 100 µM (inactive)

Q: // fetch GI50 given entry Cc1nc2c(N)ncnc2o1
Result: > 100 µM (inactive)

Q: Identify measured GI50 corresponding to CCCNc1[nH]c(C(=O)c2ccccc2)c(N)c1C(=S)Nc1ccccc1
Result: > 100 µM (inactive)

Q: Give GI50 for CC(C)CNCCc1ccccn1
Result: > 100 µM (inactive)

Q: State its GI50 for this compound: COc1cc(C2c3cc4c(cc3OC(NNS(=O)(=O)c3ccc(C)cc3)C2C)OCO4)cc(OC)c1O (stereo not drawn)
Result: 3.52 µM (inactive)

Q: Provide measured GI50 value, entry: C=CCN1CCC23c4c5ccc(O)c4OC2C(=NN=C2CCC4(O)C6Cc7ccc(O)c8c7C4(CCN6CC=C)C2O8)CCC3(O)C1C5 (stereo not drawn)
Result: 20.7 µM (inactive)

Q: Write down GI50 measured for item CC(=O)C(C)(C)CCC(C)(C)C(C)=O
Result: > 100 µM (inactive)

Q: Return GI50 for the following compound: COC1=CC(=O)C2C(C1=O)[C@@H]1c3ccccc3OC[C@H]21 (stereo partly drawn)
Result: > 100 µM (inactive)

Q: Query GI50 for O=C(Sc1c(-c2ccccc2)c(=O)n(-c2ccccc2)c(=S)n1-c1ccccc1)c1ccc(Cl)cc1
Result: > 100 µM (inactive)

###

Tested on: Malme-3M
Experiment: NCI tumour cell line growth inhibition, 48 h
Activity calls are given as the source filed them. No stated cut-off is given here; in the data, active = GI50 up to about 1.1 µM and inactive = higher.
Mark one answer only. Choices: active, inactive

Q: What outcome does the record of this test show for C=CCOc1ccc(C2C(C(=O)OC)C(=O)CC(O)(c3ccccc3)C2C(=O)OC)cc1OC (stereo not drawn) ?
Result: inactive

Q: Short answer needed: outcome of this test for Nc1nc(O)c2ncn(C3C=CC(CO)C3)c2n1 (stereo not drawn) ?
Result: inactive

Q: Given C=CC1=CC(C)C[C@]1(O)C(=O)OC (stereo partly drawn) , state the outcome it received in this test.
Result: active

###

Tested on: COLO 205
Experiment: NCI tumour cell line growth inhibition, 48 h
Activity calls are given as the source filed them. No stated cut-off is given here; in the data, active = GI50 up to about 1.1 µM and inactive = higher.
Would you kindly list GI50 for each of these compounds?

Q: Please tell me the measured GI50 for Cc1cc(N)c2cc(NC(=O)CCCCCCCCC(=O)Nc3ccc4nc(C)cc(N)c4c3)ccc2n1 ; system: COLO 205.
Result: 18.1 µM (inactive)

Q: Recall the reported GI50 of CC1(C)OC2C(CO)OC(n3cnc(N)nc3=O)C2O1 (configuration not stated) when tested on COLO 205.
Result: > 100 µM (inactive)

Q: With COLO 205 as the test system, provide measured GI50 for this compound: O=C1Nc2ccccc2/C1=N/NC(=O)c1ccccc1O
Result: > 100 µM (inactive)

Q: Give GI50 only, for COC[C@@H](/N=C/N1CCc2cc(OC)c(OC)cc2[C@@H]1C)C(C)(C)C , using COLO 205 data.
Result: > 100 µM (inactive)

Q: Find the measured GI50 of Nc1ccccc1S(=O)(=O)N(CC(=O)O)c1ccccc1 with COLO 205 as test system.
Result: > 100 µM (inactive)

Q: Lab note: COLO 205 assay, enter GI50 for Cc1cc2nc3c(C#N)c4c(c(-c5ccc(Cl)cc5)n3c2cc1C)CCC4 here
Result: 19.8 µM (inactive)

Q: Report its GI50 with COLO 205 as the test system: O=C1NC2(CCCCC2)C2=C1CCCCC2
Result: > 100 µM (inactive)

###

Would you kindly list GI50 for each of these molecules?
Test system: RXF 393
Assay: NCI tumour cell line growth inhibition, 48 h
The source made the active and inactive calls. Rule as the data show it: active = GI50 up to about 1.1 µM and inactive = higher.

Q: Using the record for COc1ccc(C(=O)C(C(=O)CCC(=O)Nc2ccc(Cl)c(Cl)c2)c2ccc(OC)cc2)cc1 (centres undefined) , state its measured GI50.
Result: > 100 µM (inactive)

Q: Look up and state reported GI50 for CCOc1ccc(NC(=O)C(=O)C(/C(=N/N)C(=O)OC)c2nc3ccc([N+](=O)[O-])cc3nc2O)cc1 (centres undefined)
Result: 36.1 µM (inactive)

Q: Tell me GI50 reported for Cc1cc(N)c2cc(NC(=O)CCCCCCCCC(=O)Nc3ccc4nc(C)cc(N)c4c3)ccc2n1
Result: > 65.3 µM (inactive)

Q: Supply reported GI50 belonging to this molecule: CCSc1c2ccccc2nc2c(OC)ccc(OC)c12
Result: 18.6 µM (inactive)

###

Tested on: DLD-1
Test: NCI tumour cell line growth inhibition, 48 h
Activity calls are given as the source filed them. Cut-off read from the data, not from the text of the source: active = GI50 up to about 1.1 µM and inactive = higher.
ASSAY METRIC: GI50

Q: Answer briefly: GI50 recorded on DLD-1 for O=C(CNc1nncs1)NO
Result: > 100 µM (inactive)

Q: Look up DLD-1 data: GI50 of N=C(N)NS(=O)(=O)c1ccc(NCc2c3ccccc3[n+]([O-])c3ccccc23)cc1 , then report it.
Result: 28.2 µM (inactive)

Q: Report value: GI50, system: DLD-1, compound: CCN(CC)CCNC(=O)c1ccccc1Nc1c(Cl)cccc1Cl
Result: 11.7 µM (inactive)

Q: Provide the reported GI50 (system: DLD-1) for CC(C)(C)C(=O)Nc1ccccc1Br
Result: > 100 µM (inactive)

Q: Lab note: record GI50 of CCC(C)CCOC(=O)c1ccc(/N=C\c2ccc(/C=N/c3ccc(C(=O)OCCC(C)CC)cc3)cc2)cc1 (stereo unspecified) tested on DLD-1.
Result: > 100 µM (inactive)

Q: GET GI50 where system = DLD-1 and item = Oc1cccnc1/C=N/OCc1ccccc1
Result: > 100 µM (inactive)

###

Test system: SNB-75
Assay: NCI tumour cell line growth inhibition, 48 h
Active and inactive are the calls of the source. Cut-off read from the data, not from the text of the source: active = GI50 up to about 1.1 µM and inactive = higher.
ASSAY METRIC: GI50

Q: For COc1ccc2c(CCNC(C)=O)c(C(C)=O)[nH]c2c1 , write its GI50.
Result: > 100 µM (inactive)

Q: Specify GI50 for COc1ccc2c(c1)CC1Cc3ccccc3CCN1C2 (configuration not stated) and stop.
Result: > 100 µM (inactive)

Q: Provide GI50 value for the following compound: O=C1/C(=C/c2cccs2)NC(=S)N1CN1CCCCC1
Result: > 100 µM (inactive)

Q: Please report the measured GI50 for COc1cc(C2c3cc4c(cc3OC(NNS(=O)(=O)c3ccc(C)cc3)C2C)OCO4)cc(OC)c1O (configuration not stated)
Result: 3.61 µM (inactive)

Q: # return recorded GI50 for entry COCOCc1cc(OCc2ccccc2)c(OC)cc1Br
Result: > 100 µM (inactive)

Q: Specify reported GI50 for the compound shown: CCCCOCCOC1=CC(=O)c2c(O)ccc(O)c2C1=O
Result: 1.57 µM (inactive)

Q: # return recorded GI50 for entry CN/N=C(\C)CC(=O)Nc1cccc(Cl)c1C
Result: > 100 µM (inactive)

###

So I've got a bunch of molecules here, and I need their GI50 values.
Tested on: CCRF-CEM
Experiment: NCI tumour cell line growth inhibition, 48 h
Calls of active or inactive are those of the source. No stated cut-off is given here; in the data, active = GI50 up to about 1.1 µM and inactive = higher.

Q: Quickly give me recorded GI50 for C/C(CCN(C)C)=N/O
Result: 0.194 µM (active)

Q: Item COCc1nc2c(OC)c(-c3nc4ccc(N5CCN(C)CC5)nc4[nH]3)cc(OC)c2n1C : provide GI50
Result: 21 µM (inactive)

Q: Give me measured GI50, please, for this molecule: C=Cc1cncc(C#N)c1CCc1c(C#N)cncc1C=C
Result: > 10 µM (inactive)

Q: // Input: O=C(c1ccccc1)N(C(=O)c1ccccc1)c1nc(SCc2ccccc2)ns1 . Output its GI50 only.
Result: 25.6 µM (inactive)

Q: Please supply the value of reported GI50 for the item COC(OC)C1OC(CO)C(n2cc(F)c(=O)[nH]c2=O)C1O (stereo unspecified)
Result: > 100 µM (inactive)

Q: Return GI50 for the following molecule: COc1cccc(C2CC(=O)c3cccn32)c1 (stereo unspecified)
Result: > 100 µM (inactive)

Q: Tell me its GI50 given Cc1cc2c(=O)c3ccc(Cl)cc3[nH]c2c(C(=O)O)c1C as the entry.
Result: > 100 µM (inactive)

Q: Return reported GI50. Input molecule: COc1cccc(C2c3cc4c(cc3OC(Nc3ccccc3)C2C)OCO4)c1OC (stereo unspecified)
Result: 2.88 µM (inactive)

Q: Return GI50 (reported value) for this molecule: NC1=C(N2CCOCC2)C(=O)NC2=N/C(=C\c3ccccc3)C(=O)N21
Result: 79.6 µM (inactive)

Q: Respond only with GI50 recorded for COc1ccc2c(CCNC(C)=O)c(C(C)=O)[nH]c2c1
Result: > 100 µM (inactive)

Q: Identify measured GI50 corresponding to O=C1OC2(OC2c2ccc(Cl)cc2)c2ccccc21 (stereo unspecified)
Result: 51.5 µM (inactive)

Q: Write down GI50 measured for item CCOC(=O)c1c(N2CCCC2)[nH]c(=O)c(C(c2ccco2)c2c(O)c(C(=O)OCC)c(N3CCCC3)[nH]c2=O)c1O
Result: > 100 µM (inactive)

Q: Return GI50 (reported value) for this molecule: COc1cc(-c2[o+]c3cc(O)cc(OC4OC(CO)C(O)C(O)C4O)c3cc2OC2OC(CO)C(O)C(O)C2O)cc(OC)c1O (stereo unspecified)
Result: 70.1 µM (inactive)

Q: Supply GI50 value. Item: O=C(O)c1ccccc1NS(=O)(=O)c1ccc([N+](=O)[O-])cc1
Result: > 100 µM (inactive)

Q: Report GI50, nothing else, for this molecule: NC1(C(=O)O)CCCC1 [CYCLOLEUCINE]
Result: > 625 µM (inactive)

Q: Determine its reported GI50: C=CC1=CC(C)C[C@]1(O)C(=O)OC (stereo partly specified)
Result: < 0.01 µM (active)
